Origin of the recorded values: ChEMBL document CHEMBL6087477

Test: Half life in Balb/c mouse at 3 mg/kg, iv
Assay type: ADME, organism-based
Details: in vivo
Can you tell me half-life for the items I'm about to list?
The answer is to be given in h; state only the numeric part.

[Q] Quick check: half-life of COc1cc2c(NC3CCN(C)CC3)cc(-c3ccc(C)o3)nc2cc1OCCCN1CCCC1 ?
[A] 10.4

[Q] For COc1cc2c(NC3CCN(C4CC4)CC3)cc(-c3ccc(C)o3)nc2cc1OCCCN1CCCC1 , what is its reported half-life?
[A] 24.2

====

Tested on: MCF7
Assay: Antiproliferative activity against human MCF7 cells assessed as reduction in cell viability by sulforhodamine B assay
Type: functional, cell-based
endpointLabel: pIC50
Schema: pIC50 number; meaning minus log10 of the concentration expressed in molar units.

[Q] # query: pIC50 of entry COc1cc2nc(N3CCN(C)CC3)nc(NC3CCN(Cc4ccccc4)CC3)c2cc1OC
[A] 5.11

====

Please respond with reported inhibition at 30 µM for every item in the list.
Molecular target: hERG (KCNH2) (Homo sapiens)
Sequence (Q12809 whole entry): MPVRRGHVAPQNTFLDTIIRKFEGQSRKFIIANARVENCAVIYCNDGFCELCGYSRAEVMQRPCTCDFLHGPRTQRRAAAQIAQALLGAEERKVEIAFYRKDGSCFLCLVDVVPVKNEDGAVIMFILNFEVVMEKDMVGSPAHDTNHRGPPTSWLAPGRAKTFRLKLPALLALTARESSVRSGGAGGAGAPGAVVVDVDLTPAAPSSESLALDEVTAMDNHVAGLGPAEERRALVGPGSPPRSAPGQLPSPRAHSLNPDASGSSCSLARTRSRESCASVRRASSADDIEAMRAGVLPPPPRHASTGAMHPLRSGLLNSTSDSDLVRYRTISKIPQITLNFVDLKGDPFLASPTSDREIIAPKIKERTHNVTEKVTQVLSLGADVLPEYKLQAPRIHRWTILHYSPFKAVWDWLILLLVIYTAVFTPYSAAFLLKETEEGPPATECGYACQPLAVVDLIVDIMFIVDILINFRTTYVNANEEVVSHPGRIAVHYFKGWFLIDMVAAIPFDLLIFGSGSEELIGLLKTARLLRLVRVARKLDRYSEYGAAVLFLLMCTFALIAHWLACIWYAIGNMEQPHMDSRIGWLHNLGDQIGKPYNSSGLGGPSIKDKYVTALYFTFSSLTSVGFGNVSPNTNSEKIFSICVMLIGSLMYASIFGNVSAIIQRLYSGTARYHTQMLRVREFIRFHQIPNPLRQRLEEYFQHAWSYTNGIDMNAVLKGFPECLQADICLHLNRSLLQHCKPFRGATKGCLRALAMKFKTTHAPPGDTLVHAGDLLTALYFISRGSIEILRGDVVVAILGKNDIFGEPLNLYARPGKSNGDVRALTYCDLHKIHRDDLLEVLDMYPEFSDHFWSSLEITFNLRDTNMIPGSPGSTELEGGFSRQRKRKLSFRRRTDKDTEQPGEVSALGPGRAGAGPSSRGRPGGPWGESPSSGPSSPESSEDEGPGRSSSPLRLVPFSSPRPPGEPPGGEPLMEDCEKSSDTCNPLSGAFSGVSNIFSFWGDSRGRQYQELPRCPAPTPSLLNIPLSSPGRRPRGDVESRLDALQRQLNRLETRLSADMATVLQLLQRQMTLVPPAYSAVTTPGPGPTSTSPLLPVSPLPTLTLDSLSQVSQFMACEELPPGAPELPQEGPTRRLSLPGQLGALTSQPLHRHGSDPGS
Assay: Inhibition of hERG at 30 uM relative to control
Assay type: toxicity
Provide only the numeric value, understood in %.

[Q] Returns the measured inhibition at 30 µM for the input compound. Input: COc1cc2c(cc1C1=CCNCCC1)N=C(N)C21CCC1
[A] 5

[Q] So what does the record say about inhibition at 30 µM for COc1cc2c(cc1C1=CCN(C)CCC1)N=C(N)C21CCC1 ?
[A] 1

====

Target: Histone-lysine N-methyltransferase EHMT2 (Homo sapiens)
Sequence (Q96KQ7 whole entry): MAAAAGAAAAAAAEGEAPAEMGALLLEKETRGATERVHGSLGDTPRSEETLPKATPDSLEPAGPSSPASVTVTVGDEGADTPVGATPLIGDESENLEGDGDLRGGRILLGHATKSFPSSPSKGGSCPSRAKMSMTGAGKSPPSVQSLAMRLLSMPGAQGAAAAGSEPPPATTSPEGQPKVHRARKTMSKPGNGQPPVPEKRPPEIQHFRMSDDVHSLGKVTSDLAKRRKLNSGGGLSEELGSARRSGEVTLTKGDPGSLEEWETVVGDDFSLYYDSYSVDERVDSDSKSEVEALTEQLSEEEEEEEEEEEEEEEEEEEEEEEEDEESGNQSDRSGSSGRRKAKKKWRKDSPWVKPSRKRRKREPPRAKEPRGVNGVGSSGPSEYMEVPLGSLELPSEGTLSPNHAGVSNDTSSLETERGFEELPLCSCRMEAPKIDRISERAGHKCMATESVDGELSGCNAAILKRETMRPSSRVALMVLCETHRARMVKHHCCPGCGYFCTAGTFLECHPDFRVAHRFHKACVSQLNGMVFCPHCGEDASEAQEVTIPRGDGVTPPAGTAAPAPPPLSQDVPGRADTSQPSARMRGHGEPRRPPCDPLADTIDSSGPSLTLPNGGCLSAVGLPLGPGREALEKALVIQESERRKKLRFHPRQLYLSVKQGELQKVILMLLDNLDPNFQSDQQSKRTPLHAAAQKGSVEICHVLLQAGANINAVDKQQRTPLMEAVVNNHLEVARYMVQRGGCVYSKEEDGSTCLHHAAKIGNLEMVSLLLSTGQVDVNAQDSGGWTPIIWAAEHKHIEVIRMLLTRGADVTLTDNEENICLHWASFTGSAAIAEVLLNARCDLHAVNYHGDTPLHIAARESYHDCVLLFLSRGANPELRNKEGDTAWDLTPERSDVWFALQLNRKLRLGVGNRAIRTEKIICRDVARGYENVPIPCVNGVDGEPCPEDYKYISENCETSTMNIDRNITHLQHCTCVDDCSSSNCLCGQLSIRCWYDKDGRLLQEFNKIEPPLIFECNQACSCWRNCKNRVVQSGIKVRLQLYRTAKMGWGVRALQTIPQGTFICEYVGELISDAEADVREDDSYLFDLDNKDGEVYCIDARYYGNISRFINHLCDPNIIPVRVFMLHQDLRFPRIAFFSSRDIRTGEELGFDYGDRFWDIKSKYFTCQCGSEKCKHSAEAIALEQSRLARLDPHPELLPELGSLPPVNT
Assay: Inhibition of G9a (unknown origin)
For each of the molecules below, state its pIC50.
A value of pIC50 is the negative decimal logarithm of a concentration given in moles per litre.

[Q] Fill in the blank: the reported pIC50 of COc1cc2c(N(C)C3CCN(C(C)C)CC3)nc(C3CCCCC3)nc2cc1OCCCN1CCCC1 is ____.
[A] 8.30

[Q] Which value of pIC50 has been reported for CN1C(=O)[C@]23C[C@]4([C@]56C[C@]78SS[C@](CO)(C(=O)N7[C@H]5Nc5ccccc56)N(C)C8=O)c5ccccc5N[C@@H]4N2C(=O)[C@@]1(CO)SS3 in the records?
[A] 5.77

[Q] I'd like to know its pIC50. The molecule in question is CCN(c1cc(-c2ccc(CN3CCOCC3)cc2)cc(C(=O)NCc2c(C)cc(C)[nH]c2=O)c1C)C1CCOCC1 [TAZEMETOSTAT]
[A] 7.82

====

Assay: Microsomal stability in human liver microsomes assessed as half life measured for incubated upto 60 mins by LC-MS/MS analysis
Assay type: ADME, Microsome
For each of the compounds below, state its half-life.

[Q] Need half-life of COc1cc2c(NC3CCN(C)CC3)cc(-c3ccc(C)o3)nc2cc1OCCCN1CCCC1 , thanks.
[A] > 2.4 h

[Q] # query: half-life of entry COc1cc2c(NC3CCN(C4CC4)CC3)cc(-c3ccc(C)o3)nc2cc1OCCCN1CCCC1
[A] > 2.4 h

====

Task for the reader: assign each of the following compounds its reported IC50.
Target: Histone-lysine N-methyltransferase EHMT1 (Homo sapiens, UniProt Q9H9B1)
Sequence (Q9H9B1 whole entry): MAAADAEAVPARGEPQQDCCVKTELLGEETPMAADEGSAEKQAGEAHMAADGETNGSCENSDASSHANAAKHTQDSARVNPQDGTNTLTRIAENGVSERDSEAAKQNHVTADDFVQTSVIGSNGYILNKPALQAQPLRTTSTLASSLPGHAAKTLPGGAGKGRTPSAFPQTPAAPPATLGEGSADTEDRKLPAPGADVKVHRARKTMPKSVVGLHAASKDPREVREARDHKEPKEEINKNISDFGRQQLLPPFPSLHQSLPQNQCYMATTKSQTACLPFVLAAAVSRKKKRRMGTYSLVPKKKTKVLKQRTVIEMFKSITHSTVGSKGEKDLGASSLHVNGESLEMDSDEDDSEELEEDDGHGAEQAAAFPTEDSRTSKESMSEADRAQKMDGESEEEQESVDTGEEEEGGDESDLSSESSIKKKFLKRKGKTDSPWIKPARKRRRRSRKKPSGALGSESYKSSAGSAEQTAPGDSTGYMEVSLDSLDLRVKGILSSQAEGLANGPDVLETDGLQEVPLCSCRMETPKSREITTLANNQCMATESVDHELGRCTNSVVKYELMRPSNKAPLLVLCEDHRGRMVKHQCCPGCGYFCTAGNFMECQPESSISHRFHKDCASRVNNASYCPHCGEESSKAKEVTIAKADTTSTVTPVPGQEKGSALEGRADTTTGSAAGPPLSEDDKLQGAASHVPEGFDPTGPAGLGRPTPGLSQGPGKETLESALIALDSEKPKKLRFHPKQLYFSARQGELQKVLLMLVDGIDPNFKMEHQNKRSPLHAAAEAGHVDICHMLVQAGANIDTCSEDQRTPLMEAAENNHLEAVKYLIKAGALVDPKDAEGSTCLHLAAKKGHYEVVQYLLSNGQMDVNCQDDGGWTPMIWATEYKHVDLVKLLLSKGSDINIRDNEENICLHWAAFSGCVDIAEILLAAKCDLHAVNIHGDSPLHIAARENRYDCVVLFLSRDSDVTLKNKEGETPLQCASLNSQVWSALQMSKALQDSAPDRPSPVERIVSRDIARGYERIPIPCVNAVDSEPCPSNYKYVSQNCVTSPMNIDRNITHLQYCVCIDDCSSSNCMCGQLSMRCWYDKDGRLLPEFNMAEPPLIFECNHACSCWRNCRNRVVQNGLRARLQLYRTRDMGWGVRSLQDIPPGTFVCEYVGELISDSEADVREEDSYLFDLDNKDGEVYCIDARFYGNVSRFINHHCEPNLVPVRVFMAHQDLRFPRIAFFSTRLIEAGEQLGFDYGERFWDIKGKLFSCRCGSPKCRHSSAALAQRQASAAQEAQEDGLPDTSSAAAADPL
Experiment: Inhibition of GLP (unknown origin)
Expressed in nM, but write only the number.

[Q] Look up IC50: Cc1c(C(=O)N[C@@H](CCC2CC2)C(=O)Nc2ccc(C#N)cc2)[nH]c2c1C(=O)CC(C)(C)C2
[A] 53

[Q] Quick one: IC50 for COc1cc2c(NC3CCN(C4CC4)CC3)cc(-c3ccc(C)o3)nc2cc1OCCCN1CCCC1 ?
[A] 22

[Q] # get_value(readout='IC50', item= COc1cc2c(NC3CCN(C)CC3)cc(-c3ccc(C)o3)nc2cc1OCCCN1CCCC1 )
[A] 8

[Q] # get_value(readout='IC50', item= COc1cc2c(NC3CCN(C(C)C)CC3)cc(C3CCCCC3)nc2cc1OCCCN1CCCC1 )
[A] 0.7

====

Molecular target: Histone-lysine N-methyltransferase EHMT2 (Homo sapiens)
Assay: Inhibition of G9a (unknown origin)
pIC50: −log10 of the molar value.
endpointLabel: pIC50

[Q] If you can, please state the reported pIC50 value of COc1cc2c(NC3CCN(C)CC3)nc(N3CCCN(C)CC3)nc2cc1OCCOCCN(C)C .
[A] > 7.82

[Q] Bench note: what pIC50 did CN1C(=O)C2C[C@]3([C@]45CC6C(=O)N(C)[C@H](CO)C(=O)N6[C@H]4Nc4ccccc45)c4ccccc4N[C@@H]3N2C(=O)[C@H]1CO (stereo partly drawn) show?
[A] < 4.30

[Q] Quick one: pIC50 of CN1C(=O)C2C[C@]3([C@]45CC6C(=O)N(C)[C@@H](CO)C(=O)N6[C@H]4Nc4ccccc45)c4ccccc4N[C@@H]3N2C(=O)[C@@H]1CO (stereo partly drawn) ?
[A] < 4.30
